assayed system: US28 receptor (Human cytomegalovirus, UniProt P69332)
Construct: expressed in transfected cells; host or cells: HEK 293T cells, transiently transfected
Sequence (P69332 whole entry): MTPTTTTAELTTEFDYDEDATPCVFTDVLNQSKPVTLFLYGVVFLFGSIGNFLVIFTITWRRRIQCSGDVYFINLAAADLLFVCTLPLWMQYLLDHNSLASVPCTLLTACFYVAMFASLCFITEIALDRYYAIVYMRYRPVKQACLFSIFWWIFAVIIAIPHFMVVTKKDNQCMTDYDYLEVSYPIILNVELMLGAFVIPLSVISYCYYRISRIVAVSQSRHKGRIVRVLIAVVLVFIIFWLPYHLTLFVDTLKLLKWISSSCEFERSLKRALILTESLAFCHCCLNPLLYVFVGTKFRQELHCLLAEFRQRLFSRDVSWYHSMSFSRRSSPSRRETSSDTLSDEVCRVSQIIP
measurement description: PathDetect trans Elk1 luciferase reporter gene assay in US28-transfected 293T HEK cells
Format: cell-based, Human Cytomegalovirus (HCMV)
particulars: maximum intrinsic activity from dose-response curve; negative = inverse agonism
metric: Efficacy(%)

* COc1ccc(Br)cc1/C=C/C(=O)c1c(O)cccc1OC | ~95%
* CCOc1ccc(Cl)cc1/C=C/C(=O)c1ccccc1O | ~76%
* COc1cc(Br)cc(/C=C/C(=O)c2ccccc2O)c1OC | ~52%
* COc1ccc(Br)cc1/C=C/C(=O)c1ccccc1O | ~44%
* COc1ccc(I)cc1/C=C/C(=O)c1ccccc1O | ~94%
* COc1ccc(Cl)cc1/C=C/C(=O)c1ccccc1O | ~58%

* * *

measurement description: TZMbI assay for cell safety (cell viability and growth, CytoTox Glo)
particulars: human, TZMbI cells, 10 μM, Experiment 1A; read-out: % decrease in viability compared to 0.1% DMSO vehicle based on viable cell luminescence
# strict inequality: cytotoxicity at 10 μM < 30% yields Met, everything else yields Not met

- COc1ccc(Br)cc1-c1oc2cccc(OC)c2c(=O)c1O: Met
- COc1ccc(Br)cc1/C=C/C(=O)c1ccc2ccccc2c1O: Met
- COc1ccccc1-c1cc(=O)c2ccccc2o1 [Compound 11c, 2-(2-Methoxyphenyl)-4H-chromen-4-one]: Not met
- CCOc1ccc(Br)cc1/C=C/C(=O)c1ccccc1O: Not met
- COc1ccc(Br)cc1-c1cc(=O)c2c(O)cccc2o1 [Compound 12b]: Not met
- COc1cc(Br)cc(-c2oc3ccccc3c(=O)c2O)c1OC: Met

* * *

The following molecules are listed with their measured cytotoxicity at 10 μM values.
measurement description: TZMbI assay for cell safety (cell viability and growth, CytoTox Glo)
particulars: human, TZMbI cells, 10 μM, Experiment 1A; read-out: % decrease in viability compared to 0.1% DMSO vehicle based on viable cell luminescence
metric: cytotoxicity at 10 μM (%)

- COc1ccccc1-c1cc(=O)c2c(O)cccc2o1 [Compound 12a]: 44.5
- COc1ccc(Br)cc1/C=C/C(=O)c1c(O)cccc1OC: 91.3
- COc1ccc(Br)cc1/C=C/C(=O)c1ccccc1O: 64.2

* * *

assayed system: US28 receptor (Human cytomegalovirus)
Construct: expressed in transfected cells; host or cells: HEK 293T cells, transiently transfected
measurement description: PathDetect trans Elk1 luciferase reporter gene assay in US28-transfected 293T HEK cells
Type: cell-based, Human Cytomegalovirus (HCMV)
particulars: read-out: Efficacy(%), maximum intrinsic activity from dose-response curve; negative = inverse agonism
metric: Emax

* COc1ccc(Cl)cc1/C=C/C(=O)c1ccccc1O | ~58%
* COc1ccc(Br)cc1/C=C/C(=O)c1c(O)cccc1OC | ~95%
* CCOc1ccc(Br)cc1/C=C/C(=O)c1ccccc1O | ~88%
* COc1cc(OC)c(/C=C/C(=O)c2ccccc2O)cc1Br | ~55%
* CCOc1ccc(Cl)cc1/C=C/C(=O)c1ccccc1O | ~76%
